Provenance of the data: ChEMBL document CHEMBL1140024

test.system: Peroxisome proliferator-activated receptor gamma (Homo sapiens)
Sequence (P37231 whole entry, the tested form may be a part): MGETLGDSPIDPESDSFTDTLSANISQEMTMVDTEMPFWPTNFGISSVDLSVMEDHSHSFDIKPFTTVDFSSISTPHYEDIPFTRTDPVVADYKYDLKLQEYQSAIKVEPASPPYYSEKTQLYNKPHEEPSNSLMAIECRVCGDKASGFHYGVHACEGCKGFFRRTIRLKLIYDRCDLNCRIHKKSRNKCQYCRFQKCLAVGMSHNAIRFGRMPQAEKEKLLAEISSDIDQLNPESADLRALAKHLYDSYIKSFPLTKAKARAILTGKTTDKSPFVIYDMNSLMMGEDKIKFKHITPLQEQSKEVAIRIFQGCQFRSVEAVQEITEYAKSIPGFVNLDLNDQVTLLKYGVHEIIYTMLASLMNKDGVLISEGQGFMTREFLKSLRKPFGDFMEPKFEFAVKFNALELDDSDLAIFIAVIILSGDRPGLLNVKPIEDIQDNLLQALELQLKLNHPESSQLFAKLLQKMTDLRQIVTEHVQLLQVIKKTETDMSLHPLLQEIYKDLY
assay.protocol: Agonist activity at human recombinant PPARgamma by GAL4 transactivation assay
Format: functional
test.context: read-out: EC50
With a cut-off of 900 nM, any EC50 strictly below it is called Yes; any EC50 meeting it or above is called No.

[
  {
    "compound": "CCC(Oc1cccc(CN(CCCOc2ccc(C)cc2)c2nc3ccccc3o2)c1)C(=O)O (stereo not given)",
    "test.system": "Peroxisome proliferator-activated receptor gamma (Homo sapiens)",
    "qualitative.label": "Yes"
  },
  {
    "compound": "CC(Oc1cccc(CCN(CCCOc2ccccc2)c2nc3ccccc3o2)c1)C(=O)O (stereo not given)",
    "test.system": "Peroxisome proliferator-activated receptor gamma (Homo sapiens)",
    "qualitative.label": "No"
  },
  {
    "compound": "CC[C@H](Oc1cccc(CN(CCCOc2ccc(F)cc2)c2nc3ccccc3o2)c1)C(=O)O",
    "test.system": "Peroxisome proliferator-activated receptor gamma (Homo sapiens)",
    "qualitative.label": "No"
  },
  {
    "compound": "CCC(Oc1cccc(CN(CCCOc2ccc(C)c(C)c2)c2nc3ccccc3o2)c1)C(=O)O (stereo not given)",
    "test.system": "Peroxisome proliferator-activated receptor gamma (Homo sapiens)",
    "qualitative.label": "Yes"
  },
  {
    "compound": "CCC(Oc1cccc(CN(CCCOc2ccc(C)cc2C)c2nc3ccccc3o2)c1)C(=O)O (stereo not given)",
    "test.system": "Peroxisome proliferator-activated receptor gamma (Homo sapiens)",
    "qualitative.label": "Yes"
  }
]

Req: A record lists CCC(Oc1cccc(CN(CCCOc2ccccc2)c2nc3ccccc3o2)c1)C(=O)O (stereo not given) . Is its EC50 below 900 nM?
Resp: No
